- Tested on: RPMI-8226 leukemia
- ASSAY PROCEDURE: NCI-60 one-dose screen, 48 h
- CONDITION INFO: 10 µM unless noted
The panel holds about 83,000 compounds, 20% with a hit somewhere; the sample as a whole holds those more often. The source made the active and inactive calls. Rule for the calls: active = growth percent below 10; inactive = the rest.
Outcome (select one): True = active, False = inactive

Recorded results for 4 molecules are shown here.
>>> group_label("O=C(Nc1ccccc1O)c1ccc(CNC(=O)c2ccsc2Nc2ccnc(C(F)(F)F)c2)cc1")
"True"
>>> group_label("c1ccc2c(c1)CCCc1nnc3nc4ccccc4n3c1-2")
"False"
>>> group_label("COc1ccc(/C=C/C(=O)c2cc3c(N)c(C(=O)Nc4cccc(Cl)c4C)sc3nc2C)cc1")
"True"
>>> group_label("COC(=O)c1c2c(n3ccccc13)C(=O)c1ccccc1C2=O")
"False"

Query string: Tell me the recorded outcome of this test for CN1CCN(c2ccc3nc4c(nc3c2C(F)(F)F)C(=O)c2ncccc2C4=O)CC1 .
Result string: False

----------
growth values by entry
- Test system: SK-MEL-28 melanoma
- ASSAY PROCEDURE: NCI-60 one-dose screen, 48 h (100 = growth as untreated, 0 = no growth, -100 = all killed)
- CONDITION INFO: 10 µM unless noted
The panel holds about 83,000 compounds, 20% with a hit somewhere; the sample as a whole holds those more often.
Lab book: enter the figure in %, no units written.

Query string: Give growth for this entry on SK-MEL-28 melanoma: Cc1c(CC(=S)N2CCOCC2)nnn1-c1cccc(C(F)(F)F)c1
Result string: 113

Query string: Name the value of growth reported for Cc1ccc(/C=C/C(=O)Nc2ncc(Cc3ccc(F)cc3)s2)o1 when tested on SK-MEL-28 melanoma.
Result string: 59.7

Query string: Enter measured growth, system SK-MEL-28 melanoma, for the compound shown: CC1(C)NCCC[C@]2(C)[C@H]3CC[C@H]4[C@H]5[C@H](C(=O)/C=C/c6cccnc6)CCC[C@]5(CO)CC[C@@]4(C)[C@]3(C)CC[C@@H]12
Result string: 93.6

Query string: Tell me its growth on SK-MEL-28 melanoma: [2H]C([2H])([2H])Oc1ccc(F)cc1/C=C/C(=O)/C=C(O)/C=C/c1cc(F)ccc1OC([2H])([2H])[2H]
Result string: 116

Query string: Enter growth (test system SK-MEL-28 melanoma) for Cc1cccc[n+]1C1c2ccccc2-c2ccccc21
Result string: 102

----------
- System: M14 melanoma
- ASSAY PROCEDURE: NCI-60 one-dose screen, 48 h (100 = growth as untreated, 0 = no growth, -100 = all killed)
- CONDITION INFO: 10 µM unless noted
Compounds without any hit were thinned out: in the full panel of roughly 83,000, 20% have a hit.
TEST READOUT: growth (%)
Give the quantity in %, number only.

Below, 4 compounds whose answers are already recorded.
>>> reported_result("CN1CCN(c2ccc(NC(=O)c3cncnc3Nc3ccc(OCc4cccc(F)c4)c(Cl)c3)cc2)CC1")
-15.5
>>> reported_result("O=C1c2cccc3cccc(c23)C(=O)N1C/C=C/c1ccc2c3c(cccc13)C(=O)N(CCO)C2=O")
87.8
>>> reported_result("C/C=C(/C)n1cnc2c(Nc3ccccn3)nc(Cl)nc21")
101
>>> reported_result("CS(=O)(=O)Nc1cc(-c2ccc3ncc(C#N)c(Nc4ccc(F)c(Cl)c4)c3c2)cnc1Cl")
11.2

Query string: Fill in reported growth for this entry: COc1ccc2c(c1)c(/C(O)=C1\COC(=O)C1=O)cn2Cc1ccc(F)cc1
Result string: 116

Query string: Answer with reported growth of C#Cc1cccc(Nc2nc(C)nc3cc(NC(=O)CCl)ccc23)c1
Result string: -27.5

Query string: Supply measured growth of COC(=O)/C=C1/SC(=Nc2ccc([N+](=O)[O-])cc2)N(CCc2c[nH]c3ccc(O)cc23)C1=O in your reply.
Result string: 46

----------
- Tested on: UACC-257 melanoma
- ASSAY PROCEDURE: NCI-60 one-dose screen, 48 h (100 = growth as untreated, 0 = no growth, -100 = all killed)
- CONDITION INFO: 10 µM unless noted
This is part of a sample that, as a whole, favours compounds with a hit. Of some 83,000 tested, about 20% had one in any assay.
Checkbox rule: growth lower than 80% = Fulfilled; growth not lower than 80% = Not fulfilled.

Illustrative cases are given below, each with its answer.
>>> group_label("COc1ccc(Nc2ncccc2/C=C/C(=O)c2cc(OC)c(OC)c(OC)c2)cc1")
"Fulfilled"
>>> group_label("CS(=O)(=O)c1ccc(NC(=O)c2ccccc2)nc1")
"Not fulfilled"
>>> group_label("CCN1C(=O)N(CC)C2C1NN=c1s/c(=C\\c3cnc(C)n3C)c(=O)n12 (configuration not stated)")
"Fulfilled"
>>> group_label("C=C1CC[C@@H]2C(C)(C)[C@@H](O)CC[C@@]2(C)[C@@H]1COc1ccc2ccc(=O)oc2c1")
"Fulfilled"
>>> group_label("CC(C)(C)n1cc(-c2ccnc(NCCCNS(=O)(=O)c3cccc4ccccc34)c2)c(-c2cccc(F)c2)n1")
"Not fulfilled"

// switching to the query molecule
Query string: Lab log: compare recorded growth with 80%; is it strictly lower for C#CC#CC#CC#CC#CC#CC#CC#CC[C@@H]1OC[C@@H](COC(=O)O[C@@H](C(=O)O[C@H]2C[C@@]3(O)[C@@H](OC(=O)c4ccccc4)[C@@H]4[C@]5(OC(C)=O)CO[C@@H]5C[C@H](O)[C@@]4(C)C(=O)[C@H](OC(C)=O)C(=C2C)C3(C)C)[C@@H](NC(=O)c2ccccc2)c2ccccc2)O1 ?
Result string: Not fulfilled

----------
- System: SK-MEL-2 melanoma
- ASSAY PROCEDURE: NCI-60 one-dose screen, 48 h (100 = growth as untreated, 0 = no growth, -100 = all killed)
- CONDITION INFO: 10 µM unless noted
This is part of a sample that, as a whole, favours compounds with a hit. Of some 83,000 tested, about 20% had one in any assay.
Label scheme for growth: lower than 80% is NOT MET, 80% and above is MET.

Query string: hey, is growth for this one >= 80%? CN(C)CCN1C(=O)c2cccc3c(/C=C/CN4C(=O)c5cccc6cccc(c56)C4=O)ccc(c23)C1=O
Result string: MET

Query string: Could you please find out whether S=C(c1ccc2c(c1)OCO2)N1CCN(c2cccc(Cl)c2)CC1 has growth that meets 80% or exceeds it?
Result string: NOT MET

Query string: For this compound, is measured growth 80% or higher? CCOc1c(OC)cc2c(c1O)C(=O)N[C@@H]1[C@@H](O)[C@@H](O)[C@H](O)C[C@@H]21
Result string: MET

----------
- Test system: HOP-92 NSCLC
- ASSAY PROCEDURE: NCI-60 one-dose screen, 48 h
- CONDITION INFO: 10 µM unless noted
This is part of a sample that, as a whole, favours compounds with a hit. Of some 83,000 tested, about 20% had one in any assay. Calls of active or inactive are those of the source. The calls were made as follows: active = growth percent below 10; inactive = the rest.
I would appreciate it if you answered using one of these outcomes: active, inactive

>>> group_label("Cn1cc(-c2ccc(-c3cn(C)c4ccc(Cl)cc34)[nH]2)c2cc(Cl)ccc21")
"active"
>>> group_label("Cc1ccc(Cl)cc1NC(=O)c1sc2nc3c(cc2c1N)C(=O)CCC3")
"inactive"
>>> group_label("C#CCn1cnc2cnc(Nc3cccc(NC(=O)C=C)c3)nc21")
"inactive"

Query string: For this compound, state the assay outcome: CNC1=CC(=O)c2c(C(=O)OC)c(C)[n+]([O-])c(C)c2C1=O
Result string: inactive

Query string: GET /call?item= O=C(O)c1cn(C2CC2)c2cc(N3CCN(C(=O)Nc4nc(-c5ccc(Br)cc5)cs4)CC3)c(F)cc2c1=O returns the recorded outcome of this test.
Result string: active

Query string: I would be grateful if you could indicate the recorded call for Cn1cc(-c2nn3cc(-c4cccs4)nc3s2)c2cc(F)ccc21 .
Result string: inactive

Query string: Look up the recorded call for O=C(/C=C/c1cccc(Cl)c1Cl)Nc1ncc(Cc2ccccc2Cl)s1 in this test.
Result string: inactive

----------
- Tested on: SK-MEL-2 melanoma
- ASSAY PROCEDURE: NCI-60 one-dose screen, 48 h
- CONDITION INFO: 10 µM unless noted
Compounds without any hit were thinned out: in the full panel of roughly 83,000, 20% have a hit. Calls of active or inactive are those of the source. Rule for the calls: active = growth percent below 10; inactive = the rest.
Tick one outcome: 1 = active, 0 = inactive

Below are worked cases with known answers.
>>> group_label("Cc1nc2c(=O)nc3s/c(=C\\c4ccco4)c(=O)n3c2nc1C")
0
>>> group_label("Cc1ccc(C)c2c(C)c(C(=O)Nc3cccc(-n4cccn4)c3)oc12")
0
>>> group_label("O=C(/C=C/c1ccc(Oc2ccc(Br)cc2)cc1)c1ccc(Br)cc1")
0
>>> group_label("Cc1nnc(-c2ccc3c(c2)nc(/C=C/c2ccccc2)n3C2CCCCC2)o1")
0
>>> group_label("CN1CCN(Cc2ccc(NC(=O)c3cncc(C#Cc4cnc(N)c5ncccc45)c3)cc2C(F)(F)F)CC1")
1
>>> group_label("CS(=O)(=O)Nc1cc(-c2ccc3ncc(C#N)c(Nc4ccc(F)c(Cl)c4)c3c2)cnc1Cl")
1

Query string: Give the logged outcome of this assay for the following compound: CC1(C)C(N)=Nc2cc(OCCCN3Cc4ccccc4C3)c(OCC3CC3)cc21
Result string: 0

Query string: What did this assay record as the result for O=C(CI)NC(=O)NC(=O)NCc1ccccc1 ?
Result string: 0
